Origin of measurements: patent US20230357271A1

target: human IRAK-4 (Homo sapiens (Human)); test: Measurement of human IRAK-4 inhibitory activity (TR-FRET); format: biochemical; conditions: 1 nM IRAK-4, 0.5 µM peptide substrate, 10 µM ATP, 23° C., 30 minutes
Sequence (Q9NWZ3 whole entry): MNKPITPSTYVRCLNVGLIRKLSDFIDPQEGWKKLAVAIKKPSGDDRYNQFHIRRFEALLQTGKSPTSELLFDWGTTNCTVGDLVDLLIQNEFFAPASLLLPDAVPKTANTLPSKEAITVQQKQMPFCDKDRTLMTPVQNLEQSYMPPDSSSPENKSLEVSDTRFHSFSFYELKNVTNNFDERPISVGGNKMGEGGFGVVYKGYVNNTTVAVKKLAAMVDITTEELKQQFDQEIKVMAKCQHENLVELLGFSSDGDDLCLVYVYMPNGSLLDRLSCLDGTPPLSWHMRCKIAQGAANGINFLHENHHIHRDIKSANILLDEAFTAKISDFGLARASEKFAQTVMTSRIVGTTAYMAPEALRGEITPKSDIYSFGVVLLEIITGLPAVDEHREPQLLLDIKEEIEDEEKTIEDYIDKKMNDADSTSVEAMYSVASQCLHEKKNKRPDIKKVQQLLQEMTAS
measurementType: IC50 (nM)

{"compound": "CCC(O)COCc1ncc(-c2ccc3ncc4cc3c2OCCCOC(=O)[C@@H]2C[C@H](CCN2C)N4)cn1 (stereo partly drawn) [a-02-08]", "scaleUnit": "nM", "experimentalValue": 5.73}

P. CCCOCc1ncc(-c2ccc3ncc4nc3c2OCCCOC(=O)[C@@H]2C[C@H](CCN2C)N4)cn1 [a-01-15]
Q. CN1CCCOc2c(-c3cnc(CO)s3)ccc3ncc(nc23)N[C@H]2CCN(C)[C@@H](C2)C1=O [a-01-18]
Task: Field: entry with larger IC50 (options P / Q ). API: response body contains the label of the selected item.
Output: P
(P: 2.77 nM, Q: 1.84 nM)

---

Tested on: human acute monocytic leukemia cell strain THP-1
Test: LPS-stimulated TNFα production inhibition test using THP-1 cells
Type: cell-based
Settings: Homo sapiens, THP-1, 4 h, LPS 2.5 ng/mL, TNFα by HTRF
Experimental: By the THP-1 assay, influence of a test compound on the TNFα production induced by LPS stimulation can be evaluated. […] The fluorescence intensity ratio for the wavelengths of 620 and 665 nm (620 nm/665 nm) was measured with a microplate reader, and the amount of TNFα in the supernatant was calculated by using a calibration curve. […]
measurementType: IC50 (µM)

P. [2H]C([2H])([2H])N1CC[C@H]2C[C@H]1C(=O)NCC(F)COc1c(-c3cnc(COCCC)nc3)ccc3ncc(cc13)N2 (stereo partly shown)
Q. Cc1ncc(-c2ccc3ncc4cc3c2OCCCOC(=O)[C@@H]2C[C@H](CCN2)N4)cn1
R. CCC(O)COCc1ncc(-c2ccc3ncc4cc3c2OCCCOC(=O)[C@@H]2C[C@H](CCN2C)N4)cn1 (stereo partly shown)
S. CCCOCc1ncc(-c2ccc3ncc4nc3c2OCCC(CC)CNC(=O)[C@@H]2C[C@H](CCN2C)N4)cn1 (stereo partly shown)
Task: Rank the items in ascending order with respect to IC50. When ranking, write the labels in the order the request describes.
Output: P, R, Q, S
(P: 0.024 µM, R: 0.036 µM, Q: 0.081 µM, S: 0.189 µM)

a. CN1CCCOc2c(-c3cnc(CO)s3)ccc3ncc(nc23)N[C@H]2CCN(C)[C@@H](C2)C1=O
b. Cc1ncc(-c2ccc3ncc4nc3c2OCCCN(C)C(=O)[C@@H]2C[C@H](CCN2C)N4)cn1
Task: Quick check, higher IC50 between a and b ? API: response body contains the label of the selected item.
Output: b

I. CN1CC[C@H]2C[C@H]1C(=O)NCCCOc1c(-c3cnsc3)ccc3ncc(nc13)N2
II. Cc1ncc(-c2ccc3ncc4cc3c2OCCCNC(=O)[C@@H]2C[C@H](CCN2C)N4)cn1
III. O=C1OCCCOc2c(-c3cnc(CO[C@H]4CCC[C@@H]4O)nc3)ccc3ncc(cc23)N[C@H]2CCN[C@H]1C2
IV. CN1CC[C@H]2C[C@H]1C(=O)NCCCOc1c(-c3ccns3)ccc3ncc(nc13)N2
V. CN1CC[C@H]2C[C@H]1C(=O)NCC1(CC1)COc1c(-c3cnc(CO)s3)ccc3ncc(nc13)N2
Task: Would you mind ranking these compounds by ascending IC50? List the labels, following the order given in the request.
Output: III, IV, V, I, II
(III: 0.013 µM, IV: 0.028 µM, V: 0.044 µM, I: 0.08 µM, II: 0.135 µM)
